test_target: T1, ZFP SBS#972 (synthetic)
T1 chain: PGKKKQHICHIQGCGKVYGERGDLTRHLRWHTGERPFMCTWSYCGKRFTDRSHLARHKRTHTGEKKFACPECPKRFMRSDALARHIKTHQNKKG
test_details: EMSA
test_context: tags: MBP fusion
metric: Kd
Reply with a number, then the unit it belongs to.

# input binder: GTGGGCGCC (dsDNA) DNA 1: GTGGGCGCC DNA 2: GGCGCCCAC ; wanted: its Kd
1.75 nM

Origin of values: patent US20030068675
